# test.protocol: Influencing factors stability test (light exposure, high temperature, high humidity)
# Type: physicochemical
# test.parameters: solid storage, Light exposure (4500 Lux), 30 days; read-out: Purity%

molecule	remaining at 720 h [%]
FC1(F)Oc2ccc(Nc3ccc4cccc(Cl)c4n3)cc2O1 [crystal form A]	99.9

###

# test.protocol: Influencing factors stability test (light exposure, high temperature, high humidity)
# Assay type: physicochemical
# test.parameters: solid storage, 40°C, 30 days; read-out: Purity%
attribute.measured: remaining at 720 h (%)

compound	attribute.measured	value.unit	observed
FC1(F)Oc2ccc(Nc3ccc4cccc(Cl)c4n3)cc2O1 [crystal form A]	remaining at 720 h	%	100
